# ASSAY PROTOCOL: survival rescue of mitochondrial mutant cells in low glucose, primary screen, MELAS cybrids, Rieske KO mouse fibroblasts, CellTiter-Glo (AID 1508586);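 note: test concentration not given here; z relative to plate mean and SD of compound and empty wells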
# ASSAY CONTEXT: MELAS cybrid survival, CellTiter-Glo 48 h, hits give high values
Reported z-score values are given for each entry in this list.

[
  {
    "MOLECULE": "FC(F)(F)c1ccc(-c2nn3ncccc3c2-c2ccnc(Nc3ccc4c(c3)OCCO4)n2)cc1",
    "z-score": 0.512
  },
  {
    "MOLECULE": "COc1cc2ncn(-c3cc(OCc4ccccc4C(F)(F)F)c(C(C)=O)s3)c2cc1OC",
    "z-score": -0.657
  },
  {
    "MOLECULE": "NCC(=O)CCC(=O)O",
    "z-score": -0.348
  },
  {
    "MOLECULE": "CCc1cccc2c3c([nH]c12)C(CC)(CC(=O)O)OCC3 (stereo not given)",
    "z-score": -0.968
  },
  {
    "MOLECULE": "CCOc1ccc2c(-c3ccnc(Nc4cccc(C(F)(F)F)c4)n3)cnn2n1",
    "z-score": -0.0749
  },
  {
    "MOLECULE": "CCn1c(-c2nonc2N)nc2cncc(C(=O)N3CCNCC3)c21",
    "z-score": -0.623
  },
  {
    "MOLECULE": "NCc1ccc(-c2nc(-c3ccc(Cl)c(O)c3)c(-c3ccncc3)[nH]2)cc1",
    "z-score": 0.156
  },
  {
    "MOLECULE": "N#Cc1c(NC(=O)c2ccc(F)c3ccccc23)sc2c1CCCC2",
    "z-score": -0.605
  },
  {
    "MOLECULE": "COc1cc(Nc2ncc3c(C)nc(-c4cccc(Oc5ccccc5)c4)n3n2)cc(OC)c1OC",
    "z-score": 0.38
  },
  {
    "MOLECULE": "CC(C)(C)c1ccc(Oc2nccc(-c3c(-c4ccc(F)cc4)ncn3C3CCNCC3)n2)cc1",
    "z-score": -0.424
  },
  {
    "MOLECULE": "O=C1Nc2ccc(-c3cccnc3)cc2/C1=C\\c1cc(Br)c(O)c(Br)c1",
    "z-score": -0.192
  },
  {
    "MOLECULE": "CC1=C(CC(=O)O)c2cc(F)ccc2/C1=C\\c1ccc(S(C)=O)cc1 (stereo not given)",
    "z-score": -0.637
  },
  {
    "MOLECULE": "CCn1c(-c2nonc2N)nc2c(C#CC(C)(C)O)nc(OC[C@@H](N)c3ccccc3)cc21",
    "z-score": -0.774
  },
  {
    "MOLECULE": "CN1CCN(C(=O)c2ccc(NC(=O)Nc3ccc(N(C)c4ccnc(Nc5ccc(CS(C)(=O)=O)cc5)n4)cc3)cc2)CC1",
    "z-score": 0.142
  },
  {
    "MOLECULE": "CCN1CCC(C(=O)NC2NNC3NNC(c4cccc(F)c4F)CC32)CC1 (stereo not given)",
    "z-score": -0.831
  }
]

Measured values drawn from PubChem BioAssay for this set.
